# test_protocol: NCI Yeast Anticancer Drug Screen. Data for the sgs1 mgt1 strain (AID 161)
# settings: S. cerevisiae sgs1 mgt1 strain, at 5.0 µM (retest, dose inferred, filed as 0.5)
# Description: Growth inhibition of yeast strains with defined genetic alterations is measured as a screen for potential anti-cancer activity. Selected strains with alterations in DNA damage repair or cell cycle control were exposed to compounds and growth inhibition was measured relative to vehicle treated controls. The strain used in this assay is sgs1 mgt1
Compounds without any hit were thinned out: in the full panel of roughly 79,000, 15% have a hit. Calls of active or inactive are those of the source. No stated cut-off is given here; in the data, active means growth inhibition above about 70%; inactive means the rest.
Pick one and only one: T = active, F = inactive

>>> df
                              compound  assigned_category
0  CCOC(=O)Nc1nc2ccc(Cn3cccc3)cc2[nH]1                  F

Here's the next entry for you.
Query: Which outcome did this test record for the compound CC(=O)N1OC2(C)c3ccccc3C1(C)c1ccccc12 ?
Reply: T
